# targetSystem: T1, Class I HLA molecule A*1101 in recombinant form (UniProt P04439 25-302)
# T1 MHC heavy: not shown
# methodDescription: iTopia ELISA-like peptide-HLA binding
# From the text: In order to identify and validate the immunogenic epitopes of the protein VK3-20, the iTopia™ high-throughput Epitope Discovery System was used (Beckman Coulter).
Class membership depends on Bond results alone; the intervals are low (below 1%), intermediate (1% to below 4%), high (4% or more)

Consider the worked cases shown below.
- LLIYGASSR [VK3-20 peptide No 47 LLIYGASSR]: high
- SQIVSSSYL [VK3-20 peptide No 26 SQIVSSSYL]: intermediate
- YLAWYQQKP [VK3-20 peptide No 33 YLAWYQQKP]: intermediate

GET /class?item= KPGQAPRLL [VK3-20 peptide No 40 KPGQAPRLL]
low

GET /class?item= LIYGASSRA [VK3-20 peptide No 48 LIYGASSRA]
high

GET /class?item= TQSPGTLSF [VK3-20 peptide No 5 TQSPGTLSF]
low

GET /class?item= VLTQSPGTL [VK3-20 peptide No 3 VLTQSPGTL]
low

GET /class?item= SYLAWYQQK [VK3-20 peptide No 32 SYLAWYQQK]
high

GET /class?item= RTFGQGTKV [VK3-20 peptide No 97 RTFGQGTKV]
high

GET /class?item= TLSCRASQI (also called P20) [VK3-20 peptide No 20 TLSCRASQI]
intermediate

GET /class?item= IVSSSYLAW [VK3-20 peptide No 28 IVSSSYLAW]
intermediate

GET /class?item= SPRTFGQGT [VK3-20 peptide No 95 SPRTFGQGT]
low

GET /class?item= RLEPEDFAV [VK3-20 peptide No 78 RLEPEDFAV]
intermediate

GET /class?item= QQYGSSPRT [VK3-20 peptide No 90 QQYGSSPRT]
high
